These entries and their values trace back to patent US20220204611A1.

Kindly supply the reported binding signal fold over 6E7 parental values for the records listed here.
Molecular target: T1, human TREM2 (human, UniProt Q9NZC2 19-174, limits assumed)
T1 sequence: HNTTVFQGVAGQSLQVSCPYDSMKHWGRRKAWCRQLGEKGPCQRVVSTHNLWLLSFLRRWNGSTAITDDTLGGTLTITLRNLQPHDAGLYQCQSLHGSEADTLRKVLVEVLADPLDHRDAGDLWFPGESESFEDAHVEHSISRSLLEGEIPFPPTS
Test: yeast-displayed Fab FACS, 2nd screen 100 nM
Field format: number, assumed fold, no unit text.

Input: Param item = V10 (Fab, V domains shown) VH: EVQLVQSGAEVKKPGESLKISCKGSGYSFTSYWIAWVRQMPGKGLEWMGIIYPGDSDTRYSPSFQGQVTISADKSISTAYLQWSSLKASDTAMYFCARQRTFYYDSSDYFDYWGQGTLVTVSS VL: DIQMTQSPSSVSASVGDRVTITCRASQGISSWLAWYQQKPGKAPKLLIYSASSLQNGVPSRFSGSGSGTDFTLTISSLQPEDFATYFCQQADSFPRTFGQGTKLEIK ; retrieve measured binding signal fold over 6E7 parental.
Output: 0.7

Input: Param item = V91 (Fab, V domains shown) VH: EVQLVQSGAEVKKPGESLKISCKGSGYSFTSYWIAWVRQMPGKGLEWMGIIYPDDSDTRYSPSFQGQVTISADKSISTAYLQWSSLKASDTAMYFCARQRTFYYDSSDYFDYWGQGTLVTVSS VL: DIQMTQSPSSVSASVGDRVTITCRASQGISSWLAWYQQKPGKAPKLLIYAASSLQNGVPSRFSGSGSGTDFTLTISSLQPEDFATYFCQQADSFPRTFGQGTKLEIK ; retrieve measured binding signal fold over 6E7 parental.
Output: 0.61

Input: Param item = V70 (Fab, V domains shown) VH: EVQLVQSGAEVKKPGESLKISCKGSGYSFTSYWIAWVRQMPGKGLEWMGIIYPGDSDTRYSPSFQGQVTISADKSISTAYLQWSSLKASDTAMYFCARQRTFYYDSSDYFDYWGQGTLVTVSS VL: DIQMTQSPSSVSASVGDRVTITCRASQGISSWLAWYQQKPGKAPKLLIYAAGSLQNGVPSRFSGSGSGTDFTLTISSLQPEDFATYFCQQADSFPRTFGQGTKLEIK ; retrieve measured binding signal fold over 6E7 parental.
Output: 0.84

Input: Param item = V54 (Fab, V domains shown) VH: EVQLVQSGAEVKKPGESLKISCKGSGYSFTSQWIAWVRQMPGKGLEWMGIIYPGDSDTRYSPSFQGQVTISADKSISTAYLQWSSLKASDTAMYFCARQRTFYYDSSDYFDYWGQGTLVTVSS VL: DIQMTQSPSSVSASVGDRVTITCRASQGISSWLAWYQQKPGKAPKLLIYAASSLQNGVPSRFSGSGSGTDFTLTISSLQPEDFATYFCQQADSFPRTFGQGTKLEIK ; retrieve measured binding signal fold over 6E7 parental.
Output: 0.54

Input: Param item = V45 (Fab, V domains shown) VH: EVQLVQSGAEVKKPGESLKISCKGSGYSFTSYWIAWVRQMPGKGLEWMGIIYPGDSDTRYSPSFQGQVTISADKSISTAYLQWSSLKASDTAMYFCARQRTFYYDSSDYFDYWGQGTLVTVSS VL: DIQMTQSPSSVSASVGDRVTITCRASQGISSFLAWYQQKPGKAPKLLIYAASSLQNGVPSRFSGSGSGTDFTLTISSLQPEDFATYFCQQADSFPRTFGQGTKLEIK ; retrieve measured binding signal fold over 6E7 parental.
Output: 0.53

Input: Param item = V57 (Fab, V domains shown) VH: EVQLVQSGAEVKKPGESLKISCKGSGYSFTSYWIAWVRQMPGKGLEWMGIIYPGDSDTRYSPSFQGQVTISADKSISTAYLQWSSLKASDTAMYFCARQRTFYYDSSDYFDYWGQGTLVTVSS VL: DIQMTQSPSSVSASVGDRVTITCAASQGISSWLAWYQQKPGKAPKLLIYAASSLQNGVPSRFSGSGSGTDFTLTISSLQPEDFATYFCQQADSFPRTFGQGTKLEIK ; retrieve measured binding signal fold over 6E7 parental.
Output: 0.85

Input: Param item = V20 (Fab, V domains shown) VH: EVQLVQSGAEVKKPGESLKISCKGSGYSFTSYWIAWVRQMPGKGLEWMGRIYPGDSDTRYSPSFQGQVTISADKSISTAYLQWSSLKASDTAMYFCARQRTFYYDSSDYFDYWGQGTLVTVSS VL: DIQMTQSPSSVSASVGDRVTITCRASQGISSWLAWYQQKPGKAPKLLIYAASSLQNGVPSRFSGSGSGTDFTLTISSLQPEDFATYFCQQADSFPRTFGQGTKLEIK ; retrieve measured binding signal fold over 6E7 parental.
Output: 0.52

Input: Param item = V35 (Fab, V domains shown) VH: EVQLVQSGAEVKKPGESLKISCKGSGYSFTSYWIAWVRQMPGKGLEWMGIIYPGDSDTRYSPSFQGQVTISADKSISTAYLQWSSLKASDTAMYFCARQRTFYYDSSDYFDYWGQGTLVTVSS VL: DIQMTQSPSSVSASVGDRVTITCRASQGISSWLAWYQQKPGKAPKLLIYAASSLQNGVPSRFSGSGSGTDFTLTISSLQPEDFATYFCQQAYSFPRTFGQGTKLEIK ; retrieve measured binding signal fold over 6E7 parental.
Output: 0.29

Input: Param item = V80 (Fab, V domains shown) VH: EVQLVQSGAEVKKPGESLKISCKGSGYSFTSYWIAWVRQMPGKGLEWMGIIYPGDSDTRYSPSFQGQVTISADKSISTAYLQWSSLKASDTAMYFCARQRNFYYDSSDYFDYWGQGTLVTVSS VL: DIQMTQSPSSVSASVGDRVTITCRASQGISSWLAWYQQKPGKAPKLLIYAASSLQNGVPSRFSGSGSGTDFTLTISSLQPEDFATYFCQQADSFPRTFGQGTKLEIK ; retrieve measured binding signal fold over 6E7 parental.
Output: 0.5

Input: Param item = V46 (Fab, V domains shown) VH: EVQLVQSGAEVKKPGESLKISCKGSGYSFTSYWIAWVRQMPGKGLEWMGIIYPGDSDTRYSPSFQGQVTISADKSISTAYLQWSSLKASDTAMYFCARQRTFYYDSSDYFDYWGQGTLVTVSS VL: DIQMTQSPSSVSASVGDRVTITCRASQGISSWLAWYQQKPGKAPKLLIYAASTLQNGVPSRFSGSGSGTDFTLTISSLQPEDFATYFCQQADSFPRTFGQGTKLEIK ; retrieve measured binding signal fold over 6E7 parental.
Output: 0.96
